- MEASURED_ON: SALL4 ZFC4 R900W (HT-SELEX) (Mus musculus, UniProt Q8BX22 870-940, R900W)
- Sequence: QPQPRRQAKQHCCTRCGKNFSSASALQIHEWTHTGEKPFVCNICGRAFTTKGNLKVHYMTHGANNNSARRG
- PROTOCOL_DETAILS: HT-SELEX; high values mean tight binding
- SETTINGS: protein: recombinant; vector His6-GST; dsDNA, one strand shown
Cut-off 1 fold-change vs cycle 0 on binding signal, inclusive. At or above means 1; below means -1.

{"POLYMER_SEQUENCE": "AGGCTG", "LABEL_CLASS": -1}
{"POLYMER_SEQUENCE": "ATTACG", "LABEL_CLASS": 1}
{"POLYMER_SEQUENCE": "ACCCTC", "LABEL_CLASS": -1}
{"POLYMER_SEQUENCE": "ATGGTA", "LABEL_CLASS": 1}
{"POLYMER_SEQUENCE": "AAATGA", "LABEL_CLASS": 1}
{"POLYMER_SEQUENCE": "AAATTC", "LABEL_CLASS": 1}
{"POLYMER_SEQUENCE": "ACCGGA", "LABEL_CLASS": -1}
{"POLYMER_SEQUENCE": "GCGAAA", "LABEL_CLASS": -1}
{"POLYMER_SEQUENCE": "GGTTAA", "LABEL_CLASS": 1}
{"POLYMER_SEQUENCE": "GCCCAA", "LABEL_CLASS": -1}
{"POLYMER_SEQUENCE": "CACCCA", "LABEL_CLASS": -1}
{"POLYMER_SEQUENCE": "ATAGAC", "LABEL_CLASS": 1}
{"POLYMER_SEQUENCE": "ACGTGC", "LABEL_CLASS": -1}
{"POLYMER_SEQUENCE": "ACACTG", "LABEL_CLASS": -1}
{"POLYMER_SEQUENCE": "AAACAT", "LABEL_CLASS": 1}
{"POLYMER_SEQUENCE": "CATCCA", "LABEL_CLASS": -1}
{"POLYMER_SEQUENCE": "GGGGGA", "LABEL_CLASS": -1}

* * *

- MEASURED_ON: SALL4 ZFC4 G921D (HT-SELEX) (Mus musculus, UniProt Q8BX22 870-940, G921D)
- Sequence: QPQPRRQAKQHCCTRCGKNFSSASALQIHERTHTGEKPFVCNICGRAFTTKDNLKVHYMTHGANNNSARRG
- PROTOCOL_DETAILS: HT-SELEX; high values mean tight binding
- SETTINGS: protein: recombinant; vector His6-GST; dsDNA, one strand shown
Note to self: binding signal under 1 fold-change vs cycle 0 means T, ties and anything higher get F.

{"POLYMER_SEQUENCE": "GACTCA", "LABEL_CLASS": "T"}
{"POLYMER_SEQUENCE": "CCGAGG", "LABEL_CLASS": "T"}
{"POLYMER_SEQUENCE": "GATACC", "LABEL_CLASS": "F"}
{"POLYMER_SEQUENCE": "CGTTGA", "LABEL_CLASS": "T"}
{"POLYMER_SEQUENCE": "CTTAGA", "LABEL_CLASS": "F"}
{"POLYMER_SEQUENCE": "AGATTA", "LABEL_CLASS": "F"}
{"POLYMER_SEQUENCE": "ACCCCA", "LABEL_CLASS": "T"}
{"POLYMER_SEQUENCE": "ATAGTG", "LABEL_CLASS": "F"}
{"POLYMER_SEQUENCE": "AAACCT", "LABEL_CLASS": "F"}
{"POLYMER_SEQUENCE": "GTCCTA", "LABEL_CLASS": "T"}
{"POLYMER_SEQUENCE": "CAAGCA", "LABEL_CLASS": "T"}
{"POLYMER_SEQUENCE": "CCGGAA", "LABEL_CLASS": "T"}
{"POLYMER_SEQUENCE": "CTTTTC", "LABEL_CLASS": "F"}
{"POLYMER_SEQUENCE": "AAGAAC", "LABEL_CLASS": "F"}
{"POLYMER_SEQUENCE": "GCATCA", "LABEL_CLASS": "T"}
{"POLYMER_SEQUENCE": "GGCTCA", "LABEL_CLASS": "T"}
